pKi: −log10 of the molar value.
recorded.endpoint: pKi

# return pKi for CCN1CCCC1CNC(=O)c1cc(S(=O)(=O)CC)c(N)cc1OC (stereo unspecified) , test system: Kappa-type opioid receptor (Homo sapiens, UniProt P41145) < 5.00

====

recorded.endpoint: pKi
# log scale: pKi equals minus log10 of the concentration in mol/L

For 5-hydroxytryptamine receptor 6 (Homo sapiens), give pKi of the listed compound: CCN1CCCC1CNC(=O)c1cc(S(=O)(=O)CC)c(N)cc1OC (stereo unspecified) [NSC_2159] 5.38

====

target.system: 5-hydroxytryptamine receptor 1B (Homo sapiens, UniProt P28222)
Sequence (P28222 whole entry): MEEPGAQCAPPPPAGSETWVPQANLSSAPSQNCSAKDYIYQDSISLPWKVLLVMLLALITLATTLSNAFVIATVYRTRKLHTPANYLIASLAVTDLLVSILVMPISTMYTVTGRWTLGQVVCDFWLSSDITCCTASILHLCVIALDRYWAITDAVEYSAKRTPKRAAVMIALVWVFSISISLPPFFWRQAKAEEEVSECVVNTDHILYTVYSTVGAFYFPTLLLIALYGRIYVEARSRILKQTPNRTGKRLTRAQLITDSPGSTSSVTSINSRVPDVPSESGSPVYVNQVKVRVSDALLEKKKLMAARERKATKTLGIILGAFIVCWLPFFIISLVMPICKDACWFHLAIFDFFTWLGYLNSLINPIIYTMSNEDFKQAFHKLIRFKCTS
recorded.endpoint: pKi
Notebook: values listed as pKi are -log10 of the concentration (mol/L).

System 5-hydroxytryptamine receptor 1B (Homo sapiens, UniProt P28222). Read-out pKi. Item CCN1CCCC1CNC(=O)c1cc(S(=O)(=O)CC)c(N)cc1OC (stereo unspecified) [NSC_2159] . Report value. 5.76

====

recorded.endpoint: Ki

Quote Ki with test system D(1A) dopamine receptor (Homo sapiens, UniProt P21728) for CCN1CCCC1CNC(=O)c1cc(S(=O)(=O)CC)c(N)cc1OC (stereo unspecified) > 10 µM

====

pKi: −log10 of the molar value.
recorded.endpoint: pKi

Find the measured pKi of CCN1CCCC1CNC(=O)c1cc(S(=O)(=O)CC)c(N)cc1OC (stereo unspecified) [NSC_2159] with Beta-1 adrenergic receptor (Homo sapiens, UniProt P08588) as test system. < 5.00

====

target.system: D(4) dopamine receptor (Homo sapiens, UniProt P21917)
Sequence (P21917 whole entry): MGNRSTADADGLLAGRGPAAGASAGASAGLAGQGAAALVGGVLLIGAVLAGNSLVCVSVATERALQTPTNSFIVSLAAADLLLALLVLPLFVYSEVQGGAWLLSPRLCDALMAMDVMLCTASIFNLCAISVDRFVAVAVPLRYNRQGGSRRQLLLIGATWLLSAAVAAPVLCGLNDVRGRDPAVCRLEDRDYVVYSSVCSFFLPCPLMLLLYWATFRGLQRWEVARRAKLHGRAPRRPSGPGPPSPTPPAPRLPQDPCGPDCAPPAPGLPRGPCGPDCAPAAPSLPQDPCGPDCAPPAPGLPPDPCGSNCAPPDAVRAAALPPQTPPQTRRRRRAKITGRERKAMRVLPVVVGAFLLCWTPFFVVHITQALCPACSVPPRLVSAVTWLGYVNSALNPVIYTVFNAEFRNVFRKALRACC
recorded.endpoint: pKi
Note: pKi values are expressed as the negative base-10 logarithm of concentration in M.

Dear colleague, please send me the reported pKi for CCN1CCCC1CNC(=O)c1cc(S(=O)(=O)CC)c(N)cc1OC (stereo unspecified) when you can. 5.63

====

target.system: Sigma non-opioid intracellular receptor 1 (Rattus norvegicus, UniProt Q9R0C9)
Sequence (Q9R0C9 whole entry): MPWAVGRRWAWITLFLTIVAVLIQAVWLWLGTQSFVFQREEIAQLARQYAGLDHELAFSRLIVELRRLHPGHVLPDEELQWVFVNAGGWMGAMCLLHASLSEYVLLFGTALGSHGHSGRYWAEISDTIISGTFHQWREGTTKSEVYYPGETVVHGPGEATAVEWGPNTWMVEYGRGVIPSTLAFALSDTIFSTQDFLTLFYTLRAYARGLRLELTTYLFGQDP
recorded.endpoint: Ki

Identify the reported Ki for the following entry. CCN1CCCC1CNC(=O)c1cc(S(=O)(=O)CC)c(N)cc1OC (stereo unspecified) [NSC_2159] > 10 µM

====

target.system: Histamine H2 receptor (Homo sapiens, UniProt P25021)
Sequence (P25021 whole entry): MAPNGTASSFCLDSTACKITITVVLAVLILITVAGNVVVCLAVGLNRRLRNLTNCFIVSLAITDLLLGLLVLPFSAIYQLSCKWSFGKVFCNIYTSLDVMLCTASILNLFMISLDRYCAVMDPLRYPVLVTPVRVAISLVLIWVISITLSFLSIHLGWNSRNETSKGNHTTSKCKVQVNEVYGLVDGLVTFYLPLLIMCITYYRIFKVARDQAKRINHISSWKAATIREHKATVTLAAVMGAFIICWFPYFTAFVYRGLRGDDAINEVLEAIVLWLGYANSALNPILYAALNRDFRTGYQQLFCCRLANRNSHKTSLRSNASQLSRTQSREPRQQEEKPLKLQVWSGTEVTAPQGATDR
recorded.endpoint: Ki

Supply Ki value. Item: CCN1CCCC1CNC(=O)c1cc(S(=O)(=O)CC)c(N)cc1OC (stereo unspecified) > 10 µM

====

target.system: Histamine H1 receptor (Homo sapiens)
Sequence (P35367 whole entry): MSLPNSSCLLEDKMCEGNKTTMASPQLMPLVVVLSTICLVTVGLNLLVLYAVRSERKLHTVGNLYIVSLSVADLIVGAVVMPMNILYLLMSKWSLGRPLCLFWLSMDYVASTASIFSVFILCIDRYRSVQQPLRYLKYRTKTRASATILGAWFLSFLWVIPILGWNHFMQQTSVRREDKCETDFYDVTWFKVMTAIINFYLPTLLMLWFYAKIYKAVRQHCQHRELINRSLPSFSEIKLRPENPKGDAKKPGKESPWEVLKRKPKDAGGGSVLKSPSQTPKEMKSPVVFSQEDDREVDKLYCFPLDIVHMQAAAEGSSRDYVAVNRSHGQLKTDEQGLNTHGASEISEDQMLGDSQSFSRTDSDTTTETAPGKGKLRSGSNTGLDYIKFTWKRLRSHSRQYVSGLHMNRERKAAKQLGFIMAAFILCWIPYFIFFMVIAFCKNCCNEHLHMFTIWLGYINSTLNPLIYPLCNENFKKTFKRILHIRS
recorded.endpoint: Ki

Give Ki for CCN1CCCC1CNC(=O)c1cc(S(=O)(=O)CC)c(N)cc1OC (stereo unspecified) tested on Histamine H1 receptor (Homo sapiens). > 10 µM

====

Target protein (sequence): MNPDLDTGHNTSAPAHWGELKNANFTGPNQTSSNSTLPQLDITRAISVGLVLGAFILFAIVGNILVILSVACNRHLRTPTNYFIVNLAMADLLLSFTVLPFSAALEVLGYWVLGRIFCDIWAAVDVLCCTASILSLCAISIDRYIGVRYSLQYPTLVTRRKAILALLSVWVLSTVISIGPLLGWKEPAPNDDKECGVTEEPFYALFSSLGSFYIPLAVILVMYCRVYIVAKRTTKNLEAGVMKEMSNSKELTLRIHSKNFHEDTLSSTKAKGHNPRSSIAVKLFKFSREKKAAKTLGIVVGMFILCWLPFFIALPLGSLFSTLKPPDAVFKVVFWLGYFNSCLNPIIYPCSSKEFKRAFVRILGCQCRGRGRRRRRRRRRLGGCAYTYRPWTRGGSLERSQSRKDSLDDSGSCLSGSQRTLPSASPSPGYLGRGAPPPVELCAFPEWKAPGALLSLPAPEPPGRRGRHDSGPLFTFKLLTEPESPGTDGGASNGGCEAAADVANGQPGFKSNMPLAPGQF
pKi: −log10 of the molar value.
recorded.endpoint: pKi

Specify reported pKi for the compound shown: CCN1CCCC1CNC(=O)c1cc(S(=O)(=O)CC)c(N)cc1OC (stereo unspecified) < 5.00

====

pKi: −log10 of the molar value.
recorded.endpoint: pKi

Provide the reported pKi (system: Gamma-aminobutyric acid receptor subunit alpha-1 (Rattus norvegicus)) for CCN1CCCC1CNC(=O)c1cc(S(=O)(=O)CC)c(N)cc1OC (stereo unspecified) < 5.00

====

Target chain: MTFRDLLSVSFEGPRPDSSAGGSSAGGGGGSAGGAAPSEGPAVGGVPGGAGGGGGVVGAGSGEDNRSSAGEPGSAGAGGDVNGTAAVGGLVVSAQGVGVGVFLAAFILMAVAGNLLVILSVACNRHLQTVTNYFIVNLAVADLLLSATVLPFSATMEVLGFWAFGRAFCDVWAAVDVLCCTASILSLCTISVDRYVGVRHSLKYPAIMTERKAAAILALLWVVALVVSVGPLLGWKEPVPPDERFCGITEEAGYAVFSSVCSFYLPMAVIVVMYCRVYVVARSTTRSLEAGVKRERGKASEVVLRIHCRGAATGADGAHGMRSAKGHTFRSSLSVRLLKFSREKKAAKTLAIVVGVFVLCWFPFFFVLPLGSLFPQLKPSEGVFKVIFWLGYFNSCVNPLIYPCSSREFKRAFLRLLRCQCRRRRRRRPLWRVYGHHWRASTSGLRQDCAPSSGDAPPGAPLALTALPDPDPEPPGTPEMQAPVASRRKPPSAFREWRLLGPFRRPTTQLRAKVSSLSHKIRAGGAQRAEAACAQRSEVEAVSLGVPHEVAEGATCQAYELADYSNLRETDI
pKi: −log10 of the molar value.
recorded.endpoint: pKi

Item CCN1CCCC1CNC(=O)c1cc(S(=O)(=O)CC)c(N)cc1OC (stereo unspecified) [NSC_2159] : provide pKi < 5.00

====

target.system: Mu-type opioid receptor (Homo sapiens)
Sequence (P35372 whole entry): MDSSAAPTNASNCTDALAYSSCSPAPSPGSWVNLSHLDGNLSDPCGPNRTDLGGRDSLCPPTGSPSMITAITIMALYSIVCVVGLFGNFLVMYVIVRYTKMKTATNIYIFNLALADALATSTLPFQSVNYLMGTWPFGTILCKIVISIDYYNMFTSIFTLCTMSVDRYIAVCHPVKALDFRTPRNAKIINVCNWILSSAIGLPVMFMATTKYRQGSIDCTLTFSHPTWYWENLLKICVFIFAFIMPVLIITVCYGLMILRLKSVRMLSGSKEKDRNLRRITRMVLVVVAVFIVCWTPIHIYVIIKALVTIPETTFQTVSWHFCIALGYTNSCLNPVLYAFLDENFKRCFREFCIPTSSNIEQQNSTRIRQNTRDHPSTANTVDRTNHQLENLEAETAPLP
pKi: −log10 of the molar value.
recorded.endpoint: pKi

Give a short answer stating reported pKi for CCN1CCCC1CNC(=O)c1cc(S(=O)(=O)CC)c(N)cc1OC (stereo unspecified) . < 5.00

====

recorded.endpoint: Ki

Please report the measured Ki for CCN1CCCC1CNC(=O)c1cc(S(=O)(=O)CC)c(N)cc1OC (stereo unspecified) [NSC_2159] tested on 5-hydroxytryptamine receptor 1E (Homo sapiens). > 10 µM

====

Target sequence: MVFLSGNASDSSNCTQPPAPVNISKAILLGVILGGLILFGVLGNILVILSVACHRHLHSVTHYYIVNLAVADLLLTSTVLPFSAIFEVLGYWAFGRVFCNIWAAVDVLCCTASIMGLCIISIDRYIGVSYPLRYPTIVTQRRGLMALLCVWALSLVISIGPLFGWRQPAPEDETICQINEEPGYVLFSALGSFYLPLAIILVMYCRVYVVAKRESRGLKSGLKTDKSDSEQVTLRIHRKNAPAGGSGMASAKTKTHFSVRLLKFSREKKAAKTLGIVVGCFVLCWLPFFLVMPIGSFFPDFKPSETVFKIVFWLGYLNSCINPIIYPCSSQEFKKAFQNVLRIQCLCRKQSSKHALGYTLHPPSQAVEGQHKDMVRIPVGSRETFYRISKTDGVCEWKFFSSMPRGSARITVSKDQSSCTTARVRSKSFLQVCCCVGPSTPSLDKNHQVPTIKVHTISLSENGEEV
recorded.endpoint: Ki

Recall and state the measured Ki for CCN1CCCC1CNC(=O)c1cc(S(=O)(=O)CC)c(N)cc1OC (stereo unspecified) . > 10 µM

====

target.system: 5-hydroxytryptamine receptor 3A (Homo sapiens, UniProt P46098)
Sequence (P46098 whole entry): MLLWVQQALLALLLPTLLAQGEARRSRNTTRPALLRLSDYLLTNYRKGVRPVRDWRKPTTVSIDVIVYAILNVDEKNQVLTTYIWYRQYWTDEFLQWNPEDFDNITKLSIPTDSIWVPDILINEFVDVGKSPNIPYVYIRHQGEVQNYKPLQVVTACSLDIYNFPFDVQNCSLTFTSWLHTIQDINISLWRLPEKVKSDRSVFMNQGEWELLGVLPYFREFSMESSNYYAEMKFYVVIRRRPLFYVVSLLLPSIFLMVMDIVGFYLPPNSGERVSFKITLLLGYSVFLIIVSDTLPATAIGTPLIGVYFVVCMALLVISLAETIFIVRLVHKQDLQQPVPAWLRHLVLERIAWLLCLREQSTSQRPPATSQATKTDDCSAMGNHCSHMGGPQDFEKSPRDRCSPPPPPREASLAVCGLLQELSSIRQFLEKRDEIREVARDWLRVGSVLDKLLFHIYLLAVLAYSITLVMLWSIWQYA
recorded.endpoint: Ki

Please indicate Ki recorded for CCN1CCCC1CNC(=O)c1cc(S(=O)(=O)CC)c(N)cc1OC (stereo unspecified) > 10 µM

====

target.system: Alpha-2A adrenergic receptor (Homo sapiens)
Sequence (P08913 whole entry): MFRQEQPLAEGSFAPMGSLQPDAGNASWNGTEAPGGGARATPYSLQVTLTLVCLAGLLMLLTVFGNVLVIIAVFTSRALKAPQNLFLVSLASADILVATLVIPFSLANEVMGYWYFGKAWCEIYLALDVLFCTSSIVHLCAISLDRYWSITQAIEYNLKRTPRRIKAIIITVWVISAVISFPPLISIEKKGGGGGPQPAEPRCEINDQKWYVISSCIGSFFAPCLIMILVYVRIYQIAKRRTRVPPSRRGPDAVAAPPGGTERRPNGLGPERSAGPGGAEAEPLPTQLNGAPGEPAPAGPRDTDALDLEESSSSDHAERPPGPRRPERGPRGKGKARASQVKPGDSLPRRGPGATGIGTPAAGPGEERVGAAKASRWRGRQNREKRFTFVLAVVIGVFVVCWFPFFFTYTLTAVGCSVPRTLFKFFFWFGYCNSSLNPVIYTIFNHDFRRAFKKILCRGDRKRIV
recorded.endpoint: Ki (µM)
API: value field is a number in µM; no unit string.

Report Ki for CCN1CCCC1CNC(=O)c1cc(S(=O)(=O)CC)c(N)cc1OC (stereo unspecified) 1.11
